Below: a set of entries, each annotated with reported level at 2 h.
method: Pharmacokinetics: plasma and brain concentration after IP injection
Format: in vivo, mouse
test-context: female, CD-1, mouse; mice, IP 15 mg/kg, 2 h, plasma, mean of 3
Method: FIG. 5. Pharmacokinetic data for an exemplary peptide relative to setmelanotide. Peptides at 1.5 mg/mL in PBS containing 10% DMSO and 10% PEG-400 were given by IP injection (15 mg/kg) to female CD-1 mice (n=15). […] Peptide concentrations at times indicated were determined by LC MS/MS, using non-zero standards in blank Plasma and Brain Samples. […]
Positions of bridges follow the written chain, without caps; N, C: chain ends. Non-standard residues stand in square brackets, D forms with d. Residues, ends and D or L forms follow the SMILES beside them. Nle = CCCC[C@H](N)C(=O)O
measurement-name: level at 2 h (ng/mL)

# compound, value-observed
rows = [
    ("CC(=O)N[C@@H](CCCN=C(N)N)C(=O)N[C@H]1CSSC[C@H](C(N)=O)NC(=O)[C@H](Cc2c[nH]c3ccccc23)NC(=O)C(CCCN=C(N)N)NC(=O)[C@@H](Cc2ccccc2)NC(=O)[C@H](Cc2cnc[nH]2)NC(=O)[C@@H](C)NC1=O (some centres unmarked) [CTX-1200, reference compound]", 7590),
    ("CCCC[C@H](NC(=O)[C@H](CCCNC(=N)N)NC(C)=O)C(=O)N[C@H]1CSSC[C@@H](C(N)=O)NC(=O)[C@H](Cc2c[nH]c3ccccc23)NC(=O)[C@H](CCCNC(=N)N)NC(=O)[C@@H](Cc2ccccc2)NC(=O)[C@H](Cc2c[nH]cn2)NC1=O [CTX-1227, Arg-Nle-cyclo(Cys-His-D-Phe-Arg-Trp-Cys)] (Ac-R[Nle]CH[dF]RWC-NH2; disulfide 3-8 (inferred))", 29400),
]

###

system-tested: human MC4R (Homo sapiens)
Construct: host or cells: HEK-293 cells stably expressing the GScAMP22F split-luciferase cAMP sensor and hMC4R, G418 selection
Sequence (P32245 whole entry): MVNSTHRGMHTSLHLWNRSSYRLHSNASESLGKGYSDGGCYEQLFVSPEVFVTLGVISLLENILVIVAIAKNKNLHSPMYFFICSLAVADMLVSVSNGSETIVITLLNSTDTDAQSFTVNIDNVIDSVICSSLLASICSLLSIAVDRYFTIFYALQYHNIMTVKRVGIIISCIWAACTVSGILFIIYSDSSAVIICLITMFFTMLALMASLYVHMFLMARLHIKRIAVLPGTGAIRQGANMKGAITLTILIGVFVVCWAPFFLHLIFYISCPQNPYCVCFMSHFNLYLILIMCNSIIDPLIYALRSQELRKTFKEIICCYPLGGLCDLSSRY
method: split-luciferase cAMP sensor assay, agonist mode (measurement window 1), hMC4R
Type: cell-based
test-context: agonist mode, hMC4R stable cell line; read-out: MC4R cAMP % max activation
Method: The stable cell lines were grown and maintained in selection media consisting of Dulbecco's modified Eagle media (DMEM) with 4.5 g/l D-glucose, and 4 mM L-glutamine (Thermo Fisher Scientific, Waltham, MA), supplemented with 10% fetal bovine serum, 100 units/ml penicillin, 100 μg/ml streptomycin, 2.5 μg/ml amphotericin B, 200 μg/ml hygromycin B (for positive selection of the GScAMP22f luciferase reporter), and Geneticin™ (G418) 700 μg/ml (for MC3R or MC4R selection). […]
Positions of bridges follow the written chain, without caps; N, C: chain ends. Non-standard residues stand in square brackets, D forms with d. Residues, ends and D or L forms follow the SMILES beside them. dPhe(4-Br) = N[C@H](Cc1ccc(Br)cc1)C(=O)O; d(hPhe) = N[C@H](CCc1ccccc1)C(=O)O; NMeR = CN[C@@H](CCCNC(=N)N)C(=O)O; dTic = O=C(O)[C@H]1Cc2ccccc2CN1; Nle = CCCC[C@H](N)C(=O)O
Below: a set of entries, each annotated with reported Emax.

# compound, Emax
records = [
    ("CC(=O)N[C@@H](CCCNC(=N)N)C(=O)N[C@H]1CSSC[C@@H](C(=O)N[C@@H](CCCNC(=N)N)C(=O)N[C@H](Cc2ccccc2)C(N)=O)NC(=O)[C@@H](Cc2c[nH]c3ccccc23)NC(=O)[C@H](CCCNC(=N)N)NC(=O)[C@@H](Cc2ccc(Br)cc2)NC(=O)[C@H](CCCNC(=N)N)NC(=O)[C@@H](C)NC1=O [CTX-1222] (Ac-RC[dA]R[dPhe(4-Br)]R[dW]CR[dF]-NH2; disulfide 2-8 (inferred))", "79%"),
    ("CCCC[C@H](NC(=O)[C@H](CCCNC(=N)N)NC(C)=O)C(=O)N[C@H]1CSSC[C@@H](C(N)=O)NC(=O)[C@H](Cc2c[nH]c3ccccc23)NC(=O)[C@H](CCCNC(=N)N)NC(=O)[C@@H](Cc2ccc(Br)cc2)NC(=O)[C@H](Cc2c[nH]cn2)NC1=O [CTX-1229] (Ac-R[Nle]CH[dPhe(4-Br)]RWC-NH2; disulfide 3-8 (inferred))", "31%"),
    ("CC(=O)N[C@@H](CCCNC(=N)N)C(=O)N[C@H]1CSSC[C@@H](C(=O)N[C@@H](CCCCN)C(=O)N2CCC[C@H]2C(N)=O)NC(=O)[C@@H](Cc2c[nH]c3ccccc23)NC(=O)[C@H](CCCNC(=N)N)NC(=O)[C@@H](Cc2ccc(Br)cc2)NC(=O)[C@H](CCCNC(=N)N)NC(=O)[C@@H](C)NC1=O [CTX-1217] (Ac-RC[dA]R[dPhe(4-Br)]R[dW]CKP-NH2; disulfide 2-8)", "69%"),
    ("CC(=O)N[C@@H](CCCNC(=N)N)C(=O)N[C@H]1CSSC[C@@H](C(N)=O)NC(=O)[C@@H](Cc2c[nH]c3ccccc23)NC(=O)[C@H](CCCNC(=N)N)NC(=O)[C@@H](Cc2ccc(Br)cc2)NC(=O)[C@H](CCCNC(=N)N)N(C)C(=O)[C@@H](C)NC1=O [CTX-1248] (Ac-RC[dA][NMeR][dPhe(4-Br)]R[dW]C-NH2; disulfide 2-8 (inferred))", "47%"),
    ("CC(=O)N[C@@H](CCCNC(=N)N)C(=O)N[C@H]1CSSC[C@@H](C(N)=O)NC(=O)[C@H](Cc2c[nH]c3ccccc23)NC(=O)[C@H](CCCNC(=N)N)NC(=O)[C@@H](Cc2ccc(Br)cc2)NC(=O)[C@H](CCCNC(=N)N)NC(=O)[C@@H](C)NC1=O [CTX-2205] (Ac-RC[dA]R[dPhe(4-Br)]RWC-NH2; disulfide 2-8)", "88%"),
    ("COc1ccc(C[C@H]2NC(=O)[C@H](CCCNC(=N)N)NC(=O)CNC(=O)[C@@H](NC(C)=O)CSSC[C@@H](C(N)=O)NC(=O)[C@H](Cc3ccccc3)NC(=O)[C@H](CCCNC(=N)N)NC2=O)cc1 [CTX-1641] (Ac-CGR[dY](Me)RFC-NH2; disulfide 1-7)", "104%"),
    ("CC(=O)N[C@@H](CCCNC(=N)N)C(=O)N[C@H]1CSSC[C@@H](C(=O)N[C@@H](CCCCN)C(N)=O)NC(=O)[C@@H](Cc2c[nH]c3ccccc23)NC(=O)[C@H](CCCNC(=N)N)NC(=O)[C@@H](Cc2ccc(Br)cc2)NC(=O)[C@H](CCCNC(=N)N)NC(=O)[C@@H](C)NC1=O [CTX-1218] (Ac-RC[dA]R[dPhe(4-Br)]R[dW]CK-NH2; disulfide 2-8)", "77%"),
    ("CC(=O)N[C@@H](CCCNC(=N)N)C(=O)N[C@H]1CSSC[C@@H](C(N)=O)NC(=O)[C@H](Cc2c[nH]c3ccccc23)NC(=O)[C@H](CCCNC(=N)N)NC(=O)[C@@H](Cc2ccc(Br)cc2)NC(=O)[C@@H]2CCCN2C(=O)[C@@H](C)NC1=O [CTX-2204] (Ac-RC[dA]P[dPhe(4-Br)]RWC-NH2; disulfide 2-8 (inferred))", "13%"),
    ("CC(=O)N[C@@H](CCCNC(=N)N)C(=O)N[C@H]1CSSC[C@@H](C(N)=O)NC(=O)[C@@H](Cc2c[nH]c3ccccc23)NC(=O)[C@H](CCCNC(=N)N)NC(=O)[C@@H](Cc2c[nH]c3ccccc23)NC(=O)[C@H](CCCNC(=N)N)NC(=O)[C@@H](C)NC1=O [CTX-1275] (Ac-RC[dA]R[dW]R[dW]C-NH2; disulfide 2-8 (inferred))", "24%"),
    ("CC(=O)N[C@@H](CCCNC(=N)N)C(=O)N[C@H]1CSSC[C@@H](C(N)=O)NC(=O)[C@@H](Cc2c[nH]c3ccccc23)NC(=O)[C@H](CCCNC(=N)N)NC(=O)[C@@H](CCc2ccccc2)NC(=O)[C@H](CCCNC(=N)N)NC(=O)[C@@H](C)NC1=O [CTX-1277] (Ac-RC[dA]R[d(hPhe)]R[dW]C-NH2; disulfide 2-8 (inferred))", "29%"),
    ("CC(=O)N[C@@H](CCCNC(=N)N)C(=O)N[C@H]1CSSC[C@@H](C(N)=O)NC(=O)[C@@H](Cc2c[nH]c3ccccc23)NC(=O)[C@H](CCCNC(=N)N)NC(=O)[C@H]2Cc3ccccc3CN2C(=O)[C@H](CCCNC(=N)N)NC(=O)[C@@H](C)NC1=O [CTX-1273] (Ac-RC[dA]R[dTic]R[dW]C-NH2; disulfide 2-8)", "32%"),
]
